- System: mice
- PROCEDURE_SUMMARY: SmartCube in vivo neuropharmacological behavioral assay
- RUN_CONDITIONS: SmartCube, i.p. 15 min before test, result at the MED
Counter-ions that a name gives are not always drawn.
READOUT_TYPE: AX: anxiolytic (percent probability)

compound="CC[C@@H](C)N1C2CCCC1c1ccccc12 [Compound 25, hydrochloride]" recorded_measurement="+ (LOQ ≤ X < 5%)"
compound="CO[C@H]1CC[C@H]2c3ccccc3[C@@H]1N2C(C)C (stereo in doubt) [Compound 28, hydrochloride]" recorded_measurement="++ (5% ≤ X < 25%)"
compound="CC1CC2c3ccccc3C(C1)N2C1CCC1 (centres unmarked) [Compound 36, hydrochloride]" recorded_measurement="+ (LOQ ≤ X < 5%)"
compound="CC(C)N1C2CCC(F)C1c1ccccc12 (centres unmarked) [Compound 35, hydrochloride]" recorded_measurement="++ (5% ≤ X < 25%)"

Please state AX: anxiolytic (percent probability) for every compound in the list that follows.
1. FCC(CF)N1C2CCCC1c1ccccc12 [Compound 14, hydrochloride]
2. CC(C)N1C2CCC(=O)C1c1ccccc12 (centres unmarked) [Compound 39, hydrochloride]
3. c1ccc2c(c1)C1CCCC2N1

Output:
1: ++ (5% ≤ X < 25%); 2: + (LOQ ≤ X < 5%); 3: ++ (5% ≤ X < 25%)

For each of the compounds below, note its AX: anxiolytic (percent probability).
1. CC(C)N1[C@@H]2C[C@@H](C)C[C@H]1c1ccccc12 [Compound 31, hydrochloride]
2. c1ccc2c(c1)CC(N1C3CCCC1c1ccccc13)C2 [Compound 11, hydrochloride]
3. CO[C@@H]1CC[C@H]2c3ccccc3[C@@H]1N2C(C)C (stereo in doubt) [Compound 34, hydrochloride]
4. c1ccc2c(c1)C1CCCC2N1C1CCCC1 [Compound 4, hydrochloride]
5. CC1CC2NC(C1)c1ccccc12 (centres unmarked) [Compound 29, hydrochloride]
6. COCC(C)N1C2CCCC1c1ccccc12 (centres unmarked)
7. CCC(C)N1C2CC(C)CC1c1ccccc12 (centres unmarked) [Compound 37, hydrochloride]
8. CCC(CC)N1C2CCCC1c1ccccc12

Output:
["+ (LOQ ≤ X < 5%)", "++ (5% ≤ X < 25%)", "++ (5% ≤ X < 25%)", "++ (5% ≤ X < 25%)", "+++ (25% ≤ X < 50%)", "++ (5% ≤ X < 25%)", "+++ (25% ≤ X < 50%)", "++ (5% ≤ X < 25%)"]
